Measured photocatalytic hydrogen evolution rate accompanies every entry in the list below.
Test: photocatalytic hydrogen evolution rate (per 5 mg catalyst); higher = more photocatalytic H2 evolution; extreme values may be limits of the assay;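 note: aromatic molecules in triethylamine/methanol/water with Pt photoreduced in situ, irradiated 3 h under a 1 sun AM 1.5G solar simulator (350–1000 nm), H2 quantified by headspace gas chromatography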;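 note: listed molecule itself used as the photocatalyst at 5 mg per vial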
Conditions: catalyst mass (mg): 5; Pt cocatalyst (wt%): 3; sacrificial medium: triethylamine/methanol/water 1:1:1

Smiles	Result unit	photocatalytic hydrogen evolution rate
O=C(O)c1cc(C(=O)O)cc(-c2cc(C(=O)O)cc(C(=O)O)c2)c1	µmol/h	0
Brc1c2ccccc2c(-c2c3ccccc3c(Br)c3ccccc23)c2ccccc12	µmol/h	1.44
N#Cc1ccc(C#N)nc1	µmol/h	0.0617
COc1cc(C=O)cc(OC)c1O	µmol/h	0
Brc1cc(Br)c2[nH]c3c(Br)cc(Br)cc3c2c1	µmol/h	0.128
O=C(O)Cc1ccc(-c2ccccc2)cc1	µmol/h	0.0393
COC(=O)c1ccc2cc(Br)ccc2c1	µmol/h	0
Fc1cc(Br)c(F)cc1Br	µmol/h	0
O=C1C(=O)c2cccnc2-c2ncccc21	µmol/h	0
CC1(C)OB(c2ccc(B3OC(C)(C)C(C)(C)O3)cc2)OC1(C)C	µmol/h	0
O=C1c2cccc3cccc(c23)C(=O)N1O	µmol/h	0
CCc1cc(C)cc(CC)c1Nc1ccc(Nc2c(CC)cc(C)cc2CC)c2c1C(=O)c1ccccc1C2=O	µmol/h	0
O=c1c2ccccc2n(-c2ccccc2)c2ccccc12	µmol/h	3.33
O=S1(=O)c2ccc(Br)cc2-c2cc(Br)ccc21	µmol/h	0.009
CCOC(=O)c1cncc(C(=O)OCC)c1	µmol/h	0.00607
Brc1ccc2ccccc2c1	µmol/h	0.0179
Nc1ccc(-c2ccc(N)c(F)c2)cc1F	µmol/h	0
O=Cc1cccc2cccnc12	µmol/h	1.45
Brc1ccc(-c2ccc(-c3ccc(Br)s3)c3nsnc23)s1	µmol/h	0.174
O=Cc1c(F)c(F)c(C=O)c(F)c1F	µmol/h	0.177
CCOC(=O)c1cc(C(=O)OCC)cc(C(=O)OCC)c1	µmol/h	0.0434
O=Cc1ccc(/C=C/c2ccccc2)cc1	µmol/h	0.017
c1ccc(C(c2ccccc2)(c2ccccc2)c2ccccc2)cc1	µmol/h	0
Brc1ccc(-c2ccc(Br)cn2)nc1	µmol/h	0.0242
Nc1ccc(-c2ccc(N)c(O)c2)cc1O	µmol/h	0.104
N#Cc1ccc(F)cc1	µmol/h	0
Cn1c2ccccc2c2cc(C=O)ccc21	µmol/h	2.49
CC1(C)OB(c2cc3ccc4cc(B5OC(C)(C)C(C)(C)O5)cc5ccc(c2)c3c45)OC1(C)C	µmol/h	0.0847
O=C1c2ccc(O)cc2C(=O)c2ccc(O)cc21	µmol/h	2.69
Fc1cc(Br)c2nsnc2c1Br	µmol/h	0.241
O=C(O)c1ccc(-c2ccc(C(=O)O)cc2)cc1	µmol/h	0.0704
Brc1ccc(C(c2ccc(Br)cc2)(c2ccc(Br)cc2)c2ccc(Br)cc2)cc1	µmol/h	0.0679
N#Cc1ccc(Cc2ccc(C#N)cc2)cc1	µmol/h	0
N#CCc1cccc(CC#N)c1	µmol/h	0
Brc1cccc(Br)n1	µmol/h	0
O=C1c2ccc(Br)cc2C(=O)c2ccc(Br)cc21	µmol/h	0
CC1(C)OB(c2ccc(-n3c4ccccc4c4ccccc43)cc2)OC1(C)C	µmol/h	0.135
Brc1c(Br)c(Br)c(Br)c(Br)c1Br	µmol/h	0
N#CC1=C(C#N)SC(C#N)=C(C#N)S1	µmol/h	0
CCc1cc(C#N)ccc1C#N	µmol/h	0
O=Cc1ccc(C=O)c([N+](=O)[O-])c1	µmol/h	0
COc1cc(Br)ccc1C=O	µmol/h	12.3
N#Cc1cccc(-c2ccc(N)cc2)c1	µmol/h	0
COc1cc(C=O)ccc1O	µmol/h	0.0183
S=C=Nc1cc(Br)ccc1Br	µmol/h	0
Cc1cc(-c2cc(C)c(N)c(C)c2)cc(C)c1N	µmol/h	0
O=Cc1ccc(Br)nc1	µmol/h	0.297
N#CCc1ccc(B(O)O)cc1	µmol/h	0
Cc1cc(C)c(Nc2ccc(Nc3c(C)cc(C)cc3C)c3c2C(=O)c2ccccc2C3=O)c(C)c1	µmol/h	0.331
Brc1cc(Br)c2ccc3c(Br)cc(Br)c4ccc1c2c43	µmol/h	0.383
CN1CCN(c2ccc(C=O)cc2)CC1	µmol/h	0.409
N#Cc1cc(O)cc(C#N)c1	µmol/h	2.14
CC1(C)OB(c2ccc(-c3cccs3)s2)OC1(C)C	µmol/h	0
